system: human mammary tumoral lineage T-47D; assay: Clonogenic test (soft agar), growth of cellular colonies; format: cell-based; details: Homo sapiens, T47D, 504 h; T-47D, 10^-8 M, 21 days, control = 100%; read-out: mean number of cellular colonies in relation to control
Field 'label' (enum: True / False). Set to True when activity at 0.01 µM is strictly under 40%; else False.

Solved cases (3 shown):
CC(C=C/C=C(C)\C=C\C1=C(C)CCCC1(C)C)=CC(=O)O [CB13407, 9-cis retinoic acid, reference compound] :: False
CC1=C(/C=C/C(C)=C/C=C/C(C)=C/C(=O)Nc2ccc(O)cc2)C(C)(C)CCC1 [CB05764, reference compound] :: True
CC1(C)CCC(C)(C)c2cc(/C=C(\c3ccc(C(=O)O)cc3)C(F)(F)F)ccc21 :: True

## Input Dear colleague, could you confirm whether activity at 0.01 µM of `C/C(=C\c1ccc2c(c1)C(C)(C)CCC2(C)C)c1cc(C(=O)O)no1` falls below 40%? Thanks.
## Output False

## Input Dear colleague, could you confirm whether activity at 0.01 µM of `C/C(=C/c1cc2c(cc1C)C(C)(C)CCC2(C)C)c1ccc(-c2nnn[nH]2)cc1` falls below 40%? Thanks.
## Output False

## Input Dear colleague, could you confirm whether activity at 0.01 µM of `C/C(=C\c1ccc2c(c1)C(C)(C)CCC2(C)C)c1ccc(C(=O)O)nc1` falls below 40%? Thanks.
## Output False
